Measured on: human GLP-1 receptor (human, UniProt P43220 24-463)
Experiment: cell-based or functional assay
Bridges are numbered along the chain shown (N, C = ends). Where no end group is shown, it is not given here. [ ]: non-standard residue; d: D form. Aib = CC(C)(N)C(=O)O
Measured In vitro activity relative to native peptide (%) vs. GLP-1 values are reported for all entries that follow.
Please answer using a numeric value trailed by its unit.

Consider the reported In vitro activity relative to native peptide (%) vs. GLP-1 for these binders:
binder="H[Aib]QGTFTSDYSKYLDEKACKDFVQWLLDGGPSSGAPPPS (bridge 16-20) [triple agonist of SEQ ID NO: 32]" val=151%
binder="Y[Aib]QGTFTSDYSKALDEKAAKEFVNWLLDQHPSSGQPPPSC (bridge 16-20) [triple agonist of SEQ ID NO: 101]" val=23.2%
binder="Y[Aib]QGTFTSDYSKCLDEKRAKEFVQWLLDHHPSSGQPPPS (bridge 16-20) [triple agonist of SEQ ID NO: 22]" val=20.1%

Q: # In vitro activity relative to native peptide (%) vs. GLP-1 lookup, item H[Aib]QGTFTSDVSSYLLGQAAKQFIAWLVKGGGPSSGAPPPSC [triple agonist of SEQ ID NO: 3]
Ans: 1.8%

Q: # In vitro activity relative to native peptide (%) vs. GLP-1 lookup, item H[Aib]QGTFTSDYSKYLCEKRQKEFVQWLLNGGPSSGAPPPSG (bridge 16-20) [triple agonist of SEQ ID NO: 36]
Ans: 37.4%

Q: # In vitro activity relative to native peptide (%) vs. GLP-1 lookup, item H[Aib]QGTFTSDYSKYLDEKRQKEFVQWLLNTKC (bridge 16-20) [triple agonist of SEQ ID NO: 58]
Ans: 39.1%
